test system: NCI-H23 lung; experiment: NCI tumour cell line growth inhibition, 48 h; in the data active = GI50 below about 0.43 µM; inactive = the rest
Classes to choose from: active, inactive

Example entries and their recorded answers appear below.
Task: Hi, do you know how "O=C(Nc1ccccc1)Nc1ccc2cc3ccc(NC(=O)Nc4ccccc4)cc3nc2c1" came out in this test?
Result: inactive

Task: Which outcome did this test record for the compound "COc1ccc2c(c1OC)CO[C@@H]2[C@H]1c2c(cc3c(c2OC)OCO3)CCN1S(=O)(=O)c1cn(C)cn1" ?
Result: inactive

Task: # fetch the recorded call for "CCOCCCn1c2c(c3c(O)cccc31)C(=O)c1ccccc1-2" here
Result: inactive

Task: What outcome does the record of this test show for "COc1ccc2c(c1)c(-c1nc(-c3c[nH]c4ccncc34)cs1)cn2C" ?
Result: inactive

Task: # fetch the recorded call for "COc1cc(Nc2ncc(-c3ccccc3)o2)cc(OC)c1" here
Result: inactive

Task: Hey, what did the test say about "O=C(Nc1cccc(O)c1)c1ccc(NC2=C(Cl)C(=O)N(Cc3ccc(Cl)cc3Cl)C2=O)cc1" ?
Result: inactive

***
Task: Query: recorded result category for "COc1cc(/C=C/C(=O)/C=C/c2ccc(-n3ccnc3C)cc2)ccc1O" in this test
Result: inactive

Task: # lookup: test call for "COc1cc(OC)cc(-c2n/c(=C\c3c(O)[nH]c4ccc(OC)cc34)cc3c2=Nc2ccccc2-3)c1"
Result: inactive

Task: Tell me the assay call for "COc1ccc(CN2c3ccccc3Sc3ccccc32)c(C(F)(F)F)c1" please.
Result: inactive

Task: Write down the call the test reported for this compound. Item: CC1=C2[C@@H](CC1)[C@]1(C)O[C@@](C(C)C)(C[C@H]1OC(=O)CO)[C@H]2OC(=O)C1CC1c1ccccc1 (some centres not stated)
Result: inactive

Task: Please let me know the test result on file for CC(N)(Cc1c[nH]c2cccc(F)c12)C(=O)O (configuration not stated) .
Result: inactive

Task: Could you please tell me the result logged for "COC(=O)c1ccc(CN2C(=O)C(Cl)=C(Nc3cccc(Cl)c3C)C2=O)cc1" in this assay?
Result: inactive

* * *

tested on: HS 578T breast; assay: NCI tumour cell line growth inhibition, 48 h; in the data active = GI50 below about 0.43 µM; inactive = the rest
Respond only with the outcome that fits, drawn from label 1 = active, label 0 = inactive

Task: Record request — test call for "Cn1cc(-c2ccc3cc(-c4ccc(CC(=O)Nc5cc(C(C)(C)C)on5)cc4)cnc3c2)cn1"
Result: label 1

Task: Please let me know the test result on file for "C=C/C=C/[C@@H](O)CC(=C)C[C@H]1OC2[C@H](C)[C@@H](OC(=O)C[C@H]3C[C@H](OC(C)=O)C[C@@]4(C[C@@](C)(O)C[C@H](CC(=C)[C@@H](C)[C@H](OC(C)=O)[C@H](C)C(=O)C[C@@H]5C[C@H](OC)CC6(C[C@@H](O)C[C@H](/C=C\CCC[C@H]7O[C@](O)(C=C[C@H]7C)[C@H]2O)O6)O5)O4)O3)[C@@H]1O" .
Result: label 1

Lab note: next compound to report on.
Task: Write down the call the test reported for this compound. Item: "O=C(Nc1ccccc1)Nc1ccc2cc3ccc(NC(=O)Nc4ccccc4)cc3nc2c1"
Result: label 0

* * *

tested on: UO-31 renal; assay: NCI tumour cell line growth inhibition, 48 h
Measured Parameter: TGI (µM)
Express the result in µM but write the number alone.

Worked cases, answers included:
Task: # return recorded TGI for entry "O=C(CSc1nc(-c2ccccc2)c(-c2ccccc2)[nH]1)N/N=C/c1ccc(O)cc1"
Result: 93.2

Task: Complete the entry with TGI for "O=C([CH-]C(=O)c1ccccc1)c1ccccc1.[CH-]1CCCCC1.[CH-]1CCCCC1.[CH-]1CCCCC1.[Sn+4]"
Result: 25

Task: For the compound "CC(=O)Oc1c(N2CCCCC2)c(C(=O)c2ccccc2)c(O)c2ccn(N(C)C)c12" , report TGI.
Result: 35.4

Task: Specify measured TGI for "COc1cccc(CC(C)=C(c2ccc(OCCN3CCCCC3)cc2)c2ccc(OCCN3CCCCC3)cc2)c1" .
Result: 3.66

Task: Supply TGI value. Item: CC1C(C)N(C(=O)CCl)c2ccccc2N1C(=O)CCl (stereo not drawn)
Result: 0.346

Task: Using the record for "O=S(=O)(NNc1ccccc1)c1ccccc1" , state its measured TGI.
Result: 25.7

New cases:
Task: Name the recorded TGI of the compound listed here: "Cc1cc(S(=O)(=O)Nc2nc3ccccc3nc2-c2ccc(Cl)cc2)c(S)cc1Cl"
Result: 30.1

Task: Report TGI, nothing else, for this compound: "O=C1C(Cl)=C(N(C(=O)c2ccccc2)C(=O)c2ccccc2)C(=O)c2ccccc21"
Result: 15.7

Task: Tell us which TGI value is on record for Cc1cccc(N2C(=O)C3c4[nH]c5ccccc5c4C4CCC(C(C)(C)C)CC4C3C2=O)c1 (stereo not drawn)
Result: 28.6

Task: Return TGI (reported value) for this compound: "COc1ccc(C/C(=C(\C)c2ccc(OCCN3CCCC3)cc2)c2ccc(OCCN3CCCC3)cc2)cc1"
Result: 2.94

Task: Give the measured TGI for "O=[N+]([O-])C=C(c1ccc(Cl)cc1)c1ccc(Cl)cc1"
Result: 27.2

Task: Give recorded TGI. CC1=C(/C=C/C(C)=C/C2CC(N(C)C)=CC(=O)O2)C(C)(C)CCC1 (stereo not drawn)
Result: 22.7

Task: Output TGI of Cc1c(N=Nc2ccccc2)c(C)n(C2OC(CO)C(O)C(O)C2O)c(=S)c1C#N (stereo not drawn)
Result: 73.1

Task: Specify reported TGI for the compound shown: "O=C1C(c2ccc(Br)cc2)=[N+]([O-])c2ccccc21"
Result: 38.7

Task: Using known records, supply TGI for "CC(C)=CCc1[nH]c2ccccc2c1C1=C(O)C(=O)C(c2c(CC=C(C)C)[nH]c3ccccc23)=C(O)C1=O"
Result: 3.14

Task: Name the recorded TGI of the item "Cc1cccc2nc3ccccc3c(Nc3ccc(NS(C)(=O)=O)cc3)c12" in your answer.
Result: 12.4

Numbers sourced from PubChem BioAssay (NCI).
